Ref: patent US20260209321A1

Readings of Kd for the listed binders
biological target: T1, Peptide-biotin; test: SPR Biacore 8K affinity ranking; antibody Fc-captured, Peptide-biotin analyte, 1:1 fit
T1 construct: also called antigen
T1 sequence (Q8TD43 other isoform, or with tags, fused parts or gaps): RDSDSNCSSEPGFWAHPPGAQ
The figure you give is taken to be in nM; do not add the unit.

# Kd (binder: humanized anti-TRPM4 antibody VH3 + VL2 (antibody, V domains shown, Full-length IgG) VH: QVQLQESGPGLVKPSQTLSLTCTVSGYSITSDYAWNWIRQHPGKGLQWMGYLSYSGVTSYNPSLKGRITISRDTSKNQFSLKLSSVTAADTAVYYCARKGTYYRYEGSYWYFDVWGQGTTVTVSS VL: DIQMTQSPSSLSASVGDRVTITCHANQNIDVWLSWYQQKPGKAPKLLIYKTSNLHTGVPSRFSGSGSGTDFTLTISSLQPEDIATYYCQQGQSYPLTFGGGTKLEIKR ) is 4.53

So for humanized anti-TRPM4 antibody VH2 + VL3 (antibody, V domains shown, Full-length IgG) VH: QVQLQESGPGLVKPSQTLSLTCTVSGYSITSDYAWNWIRQHPGKGLEWMGYLSYSGVTSYNPSLKGRVTISRDTSKNQFSLKLSSVTAADTAVYYCARKGTYYRYEGSYWYFDVWGQGTTVTVSS VL: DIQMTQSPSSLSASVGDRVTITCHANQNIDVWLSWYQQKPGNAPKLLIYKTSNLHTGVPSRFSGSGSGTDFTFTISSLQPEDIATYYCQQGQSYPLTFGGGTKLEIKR , the logged Kd turned out to be 10.8

Further cases:
Summary for this binder, humanized anti-TRPM4 antibody VH3 + VL4 (antibody, V domains shown, Full-length IgG) VH: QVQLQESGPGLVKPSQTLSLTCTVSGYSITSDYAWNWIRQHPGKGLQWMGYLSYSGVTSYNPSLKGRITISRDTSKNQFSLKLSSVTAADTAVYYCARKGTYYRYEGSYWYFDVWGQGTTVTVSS VL: DIQMTQSPSSLSASVGDRVTITCHANQNIDVWLSWYQQKPGNAPKLLIYKTSNLHTGVPSRFSGSGSGTDFTLTISSLQPEDIATYYCQQGQSYPLTFGGGTKLEIKR : Kd is 2.22
